- test_target: 5-hydroxytryptamine receptor 2C (Homo sapiens, UniProt P28335)
- Sequence (P28335 whole entry): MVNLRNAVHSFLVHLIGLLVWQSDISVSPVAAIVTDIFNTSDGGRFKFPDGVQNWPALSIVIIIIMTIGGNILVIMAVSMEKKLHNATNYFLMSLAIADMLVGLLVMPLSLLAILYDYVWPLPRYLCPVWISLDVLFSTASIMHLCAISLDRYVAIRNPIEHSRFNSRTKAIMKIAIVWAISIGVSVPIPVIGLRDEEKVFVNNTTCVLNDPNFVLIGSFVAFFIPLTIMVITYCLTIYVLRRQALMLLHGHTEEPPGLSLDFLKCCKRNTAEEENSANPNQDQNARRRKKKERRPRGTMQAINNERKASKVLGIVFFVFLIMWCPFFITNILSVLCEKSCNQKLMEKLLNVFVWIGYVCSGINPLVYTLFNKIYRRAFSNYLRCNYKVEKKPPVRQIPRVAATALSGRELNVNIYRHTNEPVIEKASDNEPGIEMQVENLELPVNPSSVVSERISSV
parameter_measured: Ki (nM)
One number for each entry, in nM.

| smiles | endpoint_result |
| --- | --- |
| CCN(C)CCc1c(-c2cccc([N+](=O)[O-])c2)[nH]c2ccccc12 | 36 |

Hi! Can you tell me Ki for each of these compounds?
1. CN(C)CCc1c(-c2ccccc2)[nH]c2ccccc12
2. C[C@H]1CCCCN1CCc1c(-c2ccccc2)[nH]c2ccccc12

[180, 230]

Hi! Can you tell me Ki for each of these compounds?
1. CCN(CC)CCc1c(-c2ccccc2)[nH]c2ccccc12
2. c1ccc(-c2[nH]c3ccccc3c2CCN2CCCCC2)cc1
3. c1ccc(-c2[nH]c3ccccc3c2CCN2CCCC2)cc1
4. C[C@@H]1CCCCN1CCc1c(-c2ccccc2)[nH]c2ccccc12

1: 160; 2: 268; 3: 260; 4: 36

====

Entries with their measured Ki, system 5-hydroxytryptamine receptor 2A (Homo sapiens, UniProt P28223):
Write the numeric value and follow it with the unit.

# count of solved cases: 3
| smiles | Ki |
| --- | --- |
| c1ccc(-c2[nH]c3ccccc3c2CCN2CCCC2)cc1 | 9 nM |
| c1ccc(-c2[nH]c3ccccc3c2CCN2CCCCC2)cc1 | 2.6 nM |
| c1ccc(-c2[nH]c3ccccc3c2CCN2CCC2)cc1 | 44 nM |

Lab request: please report Ki under test system 5-hydroxytryptamine receptor 2A (Homo sapiens, UniProt P28223) for CN(C)CCc1c(-c2ccccc2)[nH]c2ccccc12 4.4 nM

# credit: ChEMBL document CHEMBL1132836
